# target-of-assay: JAK2 (Canis lupus familiaris, UniProt A0A8C0QV87)
# Sequence (A0A8C0QV87 1-1132): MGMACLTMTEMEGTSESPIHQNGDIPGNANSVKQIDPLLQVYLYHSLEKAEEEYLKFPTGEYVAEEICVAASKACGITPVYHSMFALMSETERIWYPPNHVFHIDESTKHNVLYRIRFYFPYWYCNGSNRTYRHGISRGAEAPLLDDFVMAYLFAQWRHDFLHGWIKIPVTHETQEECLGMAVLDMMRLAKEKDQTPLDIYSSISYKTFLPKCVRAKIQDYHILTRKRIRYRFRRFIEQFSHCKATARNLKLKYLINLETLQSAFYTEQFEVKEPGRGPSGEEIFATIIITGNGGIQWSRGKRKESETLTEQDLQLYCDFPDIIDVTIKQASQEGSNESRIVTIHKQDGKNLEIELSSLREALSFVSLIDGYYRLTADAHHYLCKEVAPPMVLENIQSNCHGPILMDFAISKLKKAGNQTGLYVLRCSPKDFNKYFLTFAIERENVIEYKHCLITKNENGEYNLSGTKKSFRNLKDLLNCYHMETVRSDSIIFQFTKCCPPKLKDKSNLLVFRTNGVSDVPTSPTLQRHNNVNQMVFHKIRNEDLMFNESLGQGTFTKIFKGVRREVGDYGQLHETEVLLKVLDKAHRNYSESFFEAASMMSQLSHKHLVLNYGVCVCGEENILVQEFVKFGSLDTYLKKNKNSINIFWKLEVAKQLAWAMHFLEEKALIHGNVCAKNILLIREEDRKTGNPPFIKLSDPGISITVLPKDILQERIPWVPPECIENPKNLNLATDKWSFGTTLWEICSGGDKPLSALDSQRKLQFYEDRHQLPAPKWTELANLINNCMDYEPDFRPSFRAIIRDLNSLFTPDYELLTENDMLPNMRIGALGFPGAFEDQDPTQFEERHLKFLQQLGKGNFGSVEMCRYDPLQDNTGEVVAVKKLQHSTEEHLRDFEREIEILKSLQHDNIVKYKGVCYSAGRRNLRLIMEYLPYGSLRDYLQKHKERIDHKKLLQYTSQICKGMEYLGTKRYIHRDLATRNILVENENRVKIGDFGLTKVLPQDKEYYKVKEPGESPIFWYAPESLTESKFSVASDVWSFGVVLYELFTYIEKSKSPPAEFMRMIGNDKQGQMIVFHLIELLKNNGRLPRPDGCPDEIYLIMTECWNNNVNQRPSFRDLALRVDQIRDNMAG
quantity-name: pIC50
Please report pIC50 as the negative decimal logarithm of the molar concentration, giving only the number.

Would you kindly share the measured pIC50 for Cn1cc(-c2nc(N[C@@H]3CCCC[C@@H]3N)c(Cl)c3c2C(=O)NC3)cn1 [IVa] ?
6.20
